Conditions: human
REPORTED METRIC: pIC50
The meaning of pIC50 here: minus log10 of the concentration in molar units.

[
  {
    "CHEMICAL SMILES": "C=CC(=O)Nc1cccc(Nc2nc(Nc3ccc(Cn4ccnc4)cc3)ncc2Cl)c1",
    "OBSERVED MEASUREMENT": 6.52
  }
]

Next:
C=CC(=O)Nc1cccc(Nc2nc(Nc3ccc(Cn4ccnc4)cc3OC)ncc2Cl)c1 yielded pIC50 of 8.33

###

Assay: cells
Assay type: functional, cell-based
Conditions: Homo sapiens, NCI-H1975, 48 h
REPORTED METRIC: pIC50
The meaning of pIC50 here: minus log10 of the concentration in molar units.

Some solved entries appear below for comparison.
[
  {
    "CHEMICAL SMILES": "C=CC(=O)Nc1cccc(Nc2nc(Nc3ccc(NC(=O)Cn4ccnc4)cc3)ncc2[N+](=O)[O-])c1",
    "pIC50": 4.94
  },
  {
    "CHEMICAL SMILES": "C=CC(=O)Nc1cccc(Nc2nc(Nc3ccc(OCCn4ccnc4)cc3)ncc2F)c1",
    "pIC50": 5.74
  },
  {
    "CHEMICAL SMILES": "C=CC(=O)Nc1cccc(Nc2nc(Nc3ccc(Cn4ccnc4)cc3)ncc2Cl)c1",
    "pIC50": 6.93
  }
]

Next:
C=CC(=O)Nc1cccc(Nc2nc(Nc3ccc(OCCn4ccnc4)cc3)ncc2Cl)c1 yielded pIC50 of 6.41
